The reported measurements were obtained from ChEMBL document CHEMBL5321197.

Tested on: T47D
assay_overview: Cytotoxicity against human T47D cells assessed as reduction in cell viability incubated for 24 hrs by MTT assay
Format: functional, cell-based
measured_metric: pIC50
Remember the convention: pIC50 equals -log10 of concentration in molar.

structure_smiles_string	endpoint_result
COc1cc2ncnc(Nc3ccc(F)c(Cl)c3)c2cc1OCCCN1CCOCC1	5.46

# ---- query compound ----
So what's the measured pIC50 for this one? CCOC(=O)c1ccccc1NC(=O)Cn1c(=S)n(-c2ccccc2)c(=O)c2cc(C)ccc21
5.34

###

Test system: MCF7
assay_overview: Cytotoxicity against human MCF7 cells assessed as reduction in cell viability incubated for 24 hrs by MTT assay
Format: functional, cell-based
setup_conditions: MCF7, 24 h
pIC50: −log10 of the molar value.
just bin them by pIC50: zone 1 (below 4), zone 2 (4 to below 5), zone 3 (5 or more)

As a guide, the following entries are already answered.
structure_smiles_string	class_assignment
Cc1ccc2c(c1)c(=O)n(-c1ccccc1)c(=S)n2CC(=O)NCCc1ccccc1	zone 2
CCOC(=O)c1ccccc1NC(=O)Cn1c(=S)n(-c2ccccc2)c(=O)c2cc(C)ccc21	zone 3
CC(=O)c1ccccc1NC(=O)CSc1nc2ccc(C)cc2c(=O)n1-c1ccccc1	zone 1
CCOC(=O)N1CCC(NC(=O)CSc2nc3ccc(C)cc3c(=O)n2-c2ccccc2)CC1	zone 2
COc1ccc(NC(=O)Cn2c(=S)n(-c3ccccc3)c(=O)c3cc(C)ccc32)cc1OC	zone 3

Assign a bin to COc1ccc(NC(=O)CSc2nc3ccc(C)cc3c(=O)n2-c2ccccc2)cc1OC
zone 1

Assign a bin to COc1cc(NC(=O)CSc2nc3ccc(C)cc3c(=O)n2-c2ccccc2)cc(OC)c1OC
zone 1

Assign a bin to CCOC(=O)N1CCC(NC(=O)Cn2c(=S)n(-c3ccccc3)c(=O)c3cc(C)ccc32)CC1
zone 3

Assign a bin to COc1cc(NC(=O)Cn2c(=S)n(-c3ccccc3)c(=O)c3cc(C)ccc32)cc(OC)c1OC
zone 3

Assign a bin to CCOC(=O)c1ccccc1NC(=O)CSc1nc2ccc(C)cc2c(=O)n1-c1ccccc1
zone 1

###

System: MCF7
assay_overview: Cytotoxicity against human MCF7 cells assessed as reduction in cell viability incubated for 24 hrs by MTT assay
Type: functional, cell-based
setup_conditions: MCF7, 24 h
We begin with a simple list: items and their reported IC50.
I only need the number, in µM, no unit after it.

So what's the measured IC50 for this one? COc1cc(NC(=O)Cn2c(=S)n(-c3ccccc3)c(=O)c3cc(C)ccc32)cc(OC)c1
9.87

So what's the measured IC50 for this one? Cc1ccc2nc(SCC(=O)NCCc3ccccc3)n(-c3ccccc3)c(=O)c2c1
104

So what's the measured IC50 for this one? CC(=O)c1ccccc1NC(=O)Cn1c(=S)n(-c2ccccc2)c(=O)c2cc(C)ccc21
87.2

So what's the measured IC50 for this one? COc1cc(NC(=O)CSc2nc3ccc(C)cc3c(=O)n2-c2ccccc2)cc(OC)c1
8.5
